# assay_info: Effect of food on plasma pharmacokinetics after single oral dose of SF2a/b (Example 2)
# Type: in vivo, human
# condition_info: both sexes, human, plasma, oral, 800 mg, 800 mg SF2b, fed, low-fat, low-calorie breakfast; read-out: AUC∞, Geometric LS Means Treatment L
reported_endpoint: AUC(0-inf)

I have this compound here, COc1cc(NC(C(=O)c2c[nH]c3ccc(OC(F)(F)F)cc23)c2ccc(Cl)cc2OC)cc(S(C)(=O)=O)c1 (stereo not shown) [Compound (a)] , and I need its recorded AUC(0-inf).
221 µg·h/mL

###

# assay_info: Plasma pharmacokinetics with loading dose and weekly or twice weekly maintenance dosing, fed (Example 5)
# Type: in vivo, human
# condition_info: human, plasma, oral, Panel IV (150 mg BID Days 1-2, then 150 mg Q3D/Q4D; SF2a/b, fed), Day 1; read-out: Mean AUCτ (SD)
reported_endpoint: AUC
Param answer (str): number followed by unit.

For the molecule shown here, COc1cc(NC(C(=O)c2c[nH]c3ccc(OC(F)(F)F)cc23)c2ccc(Cl)cc2OC)cc(S(C)(=O)=O)c1 (stereo not shown) , give the reported AUC.
5980 ng·h/mL
